Each recorded value in this set is attributed to the supplement of paper PMC11061612.

test system: SK-UT-1 (Other Solid Carcinomas); test: Bliss excess, mean over the matrix (fraction); higher = more synergy;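 further: after 72 h of two-drug dosing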
Use -0.004 as the dividing line for Bliss excess, with the line itself on the satisfied side and lower values as not satisfied.

| molecule | label class |
| --- | --- |
| C[C@@H]1COCCN1c1cc(C2([S@](C)(=N)=O)CC2)nc(-c2ccnc3[nH]ccc23)n1 [AZD6738] + Nc1ccn([C@@H]2O[C@H](CO)[C@@H](O)C2(F)F)c(=O)n1 [Gemcitabine] (first compound max 10 µM, 7x7, partner max 0.3 µM) | satisfied |
| NC1(C(=O)N[C@@H](CCO)c2ccc(Cl)cc2)CCN(c2ncnc3[nH]ccc23)CC1 [Capivasertib] + CCN(CCO)CCCOc1ccc2c(Nc3cc(CC(=O)Nc4cccc(F)c4)[nH]n3)ncnc2c1 [AZD2811] (first compound max 10 µM, 7x7, partner max 1 µM) | satisfied |
| Cc1cc2ncnn2cc1Nc1ncc2c(n1)n(C1CCOCC1)c(=O)n2C [AZD7648] + C[C@@H]1COCCN1C2=NC(=NC(=C2)C3(CC3)[S@](=N)(=O)C)C4=C5C=CNC5=NC=C4 [AZD6738] (first compound max 10 µM, 7x7, partner max 10 µM) | satisfied |
| CC1(C)CCC(CN2CCN(c3ccc(C(=O)NS(=O)(=O)c4ccc(NCC5CCOCC5)c([N+](=O)[O-])c4)c(Oc4cnc5[nH]ccc5c4)c3)CC2)=C(c2ccc(Cl)cc2)C1 [Venetoclax] + Cc1cc2ncnn2cc1Nc1ncc2c(n1)n(C1CCOCC1)c(=O)n2C [AZD7648] (first compound max 1 µM, 7x7, partner max 10 µM) | not satisfied |

## Task Entry CC1(C)CCC(CN2CCN(c3ccc(C(=O)NS(=O)(=O)c4ccc(NCC5CCOCC5)c([N+](=O)[O-])c4)c(Oc4cnc5[nH]ccc5c4)c3)CC2)=C(c2ccc(Cl)cc2)C1 [Venetoclax] + CN(C)CCCOc1ccc(-c2ccc3ncc4c(c3c2)n(C2CCOCC2)c(=O)n4C)cn1 [AZD0156] (first compound max 1 µM, 7x7, partner max 1 µM) : is its Bliss excess no less than -0.004?
## Result not satisfied

## Task Entry Cn1cnc2c(F)c(Nc3ccc(Br)cc3Cl)c(C(=O)NOCCO)cc21 [Selumetinib] + C=CCn1c(=O)c2cnc(Nc3ccc(N4CCN(C)CC4)cc3)nc2n1-c1cccc(C(C)(C)O)n1 [AZD1775] (first compound max 10 µM, partner max 1 µM) : is its Bliss excess no less than -0.004?
## Result not satisfied

## Task Entry NC1(C(=O)N[C@@H](CCO)c2ccc(Cl)cc2)CCN(c2ncnc3[nH]ccc23)CC1 [Capivasertib] + CC(=O)c1c(C)c2cnc(Nc3ccc(N4CCNCC4)cn3)nc2n(C2CCCC2)c1=O [Palbociclib] (first compound max 10 µM, 7x7, partner max 10 µM) : is its Bliss excess no less than -0.004?
## Result satisfied

====

tested on: HLE (Hepatocellular Carcinoma); assay: combination Emax (second highest fraction inhibited in the dose matrix, 72 h); higher = more inhibition; extreme values may be limits of the assay
Use 0.5 as the dividing line for combination Emax, with the line itself on the Satisfied side and lower values as Not satisfied.

| compound | label class |
| --- | --- |
| COc1cccc(OCCCN)c1-c1cc(Nc2cnc(C#N)cn2)n[nH]1 [Prexasertib] + C=CCn1c(=O)c2cnc(Nc3ccc(N4CCN(C)CC4)cc3)nc2n1-c1cccc(C(C)(C)O)n1 [AZD1775] (first compound max 1 µM, partner max 1 µM) | Satisfied |
| O=C(c1cc(Cc2n[nH]c(=O)c3ccccc23)ccc1F)N1CCN(C(=O)C2CC2)CC1 [Olaparib] + CC1(C)CCC(CN2CCN(c3ccc(C(=O)NS(=O)(=O)c4ccc(NCC5CCOCC5)c([N+](=O)[O-])c4)c(Oc4cnc5[nH]ccc5c4)c3)CC2)=C(c2ccc(Cl)cc2)C1 [Venetoclax] (first compound max 10 µM, 7x7, partner max 1 µM) | Not satisfied |
| Cc1c2c(nn1C)CSCc1cc(n(C)n1)CSc1cc(c3ccccc3c1)OCCCc1c(C(=O)O)n(C)c3c-2c(Cl)ccc13 [AZD5991] + C[C@@H]1COCCN1C2=NC(=NC(=C2)C3(CC3)[S@](=N)(=O)C)C4=C5C=CNC5=NC=C4 [AZD6738] (first compound max 1 µM, 7x7, partner max 10 µM) | Satisfied |
| C[C@@H](c1ccc2nccn2c1)n1nnc2ncc(-c3cnn(C)c3)nc21 [Savolitinib] + CC1(C)CCC(CN2CCN(c3ccc(C(=O)NS(=O)(=O)c4ccc(NCC5CCOCC5)c([N+](=O)[O-])c4)c(Oc4cnc5[nH]ccc5c4)c3)CC2)=C(c2ccc(Cl)cc2)C1 [Venetoclax] (first compound max 1 µM, 7x7, partner max 1 µM) | Not satisfied |
| Cc1nc(-c2cn3c(n2)-c2ccc(-c4cnn(C(C)(C)C(N)=O)c4)cc2OCC3)n(C(C)C)n1 [Taselisib] + O=C(Nc1ccc2[nH]nc(-c3ccncc3)c2c1)[C@@H]1CCN(CC(=O)N2CCN(c3ccc(-c4ncccn4)cc3)CC2)C1 [SCH772984] (first compound max 10 µM, 7x7, partner max 5 µM) | Not satisfied |
| CC1(C)CCC(CN2CCN(c3ccc(C(=O)NS(=O)(=O)c4ccc(NCC5CCOCC5)c([N+](=O)[O-])c4)c(Oc4cnc5[nH]ccc5c4)c3)CC2)=C(c2ccc(Cl)cc2)C1 [Venetoclax] + Cc1cc2ncnn2cc1Nc1ncc2c(n1)n(C1CCOCC1)c(=O)n2C [AZD7648] (first compound max 1 µM, 7x7, partner max 10 µM) | Not satisfied |
| Cc1c2c(nn1C)CSCc1cc(n(C)n1)CSc1cc(c3ccccc3c1)OCCCc1c(C(=O)O)n(C)c3c-2c(Cl)ccc13 [AZD5991] + CCN(CCO)CCCOc1ccc2c(Nc3cc(CC(=O)Nc4cccc(F)c4)[nH]n3)ncnc2c1 [AZD2811] (first compound max 1 µM, 7x7, partner max 1 µM) | Satisfied |

Turning to the following compound.
## Task Entry C[C@@H]1COCCN1c1cc(C2([S@](C)(=N)=O)CC2)nc(-c2ccnc3[nH]ccc23)n1 [AZD6738] + C1CC(C1)(C(=O)[O-])C(=O)[O-].N.N.[Pt+2] [Carboplatin] (first compound max 10 µM, 7x7, partner max 10 µM) : is its combination Emax no less than 0.5?
## Result Not satisfied
